These data points were gathered from patent US11415579B2.

target under test: Cdk2(S276C) (C177A) (Homo sapiens, UniProt P24941, C177A/S276C)
Construct: poly-histidine; made in house; host or cells: E. coli
test details: Kinetic thiol consumption assay with Cdk2 mutant S276C
Assay type: binding
Design: key: rate constant with Cdk2 ÷ rate constant with model thiol (fold)
condition context: Cdk2 S276C, additional mutation C177A
assay readout: Rate enhancement, Cdk2 S276C

For orientation, consider the following solved cases.
compound: C=CC(=O)N1CCCC2(CCCc3ccccc32)C1 (centres unmarked)
Rate enhancement, Cdk2 S276C: 1.079
--
compound: C=CC(=O)NCc1ccc(C(=O)OC)cc1
Rate enhancement, Cdk2 S276C: 1.179

(A) C=CC(=O)Nc1ccc(C23CC4CC(CC(O)(C4)C2)C3)cc1
(B) C=CC(=O)Nc1cccc(C(F)(F)F)c1 [EL-1007]
(C) C=CC(=O)N1CCCC1c1ccc(OC)cc1 (centres unmarked)
(D) C=CC(=O)N(Cc1ccco1)Cc1ccco1
QUERY: Let's sort these by Rate enhancement, Cdk2 S276C, smallest first. Go ahead? # output: labels, in the requested order
RESULT: C, A, B, D
(C: 0.2765, A: 0.7641, B: 1.314, D: 2.266)

(A) C=CC(=O)Nc1ccc2c(c1)OC1(CCCC1)O2
(B) C=CC(=O)N1CCCCCC1c1ccc(N(C)C)cc1 (centres unmarked)
QUERY: Returns: the label, A or B , whose recorded Rate enhancement, Cdk2 S276C is the lower number. Choose, then provide that item's label.
RESULT: B
(B: 0.2024, A: 0.9498)

----------
target under test: Cdk2(T182C) (C177A) (Homo sapiens, UniProt P24941, C177A/T182C)
Construct: poly-histidine; made in house; host or cells: E. coli
test details: Kinetic thiol consumption assay with Cdk2 mutant T182C
Type: binding
condition context: Protein: Cdk2; cysteine position T182C; additional mutation C177A; in h^-1
assay readout: Rate constant with Cdk2 T182C

For orientation, consider the following solved cases.
compound: C=CC(=O)NCc1ccc(-c2csnn2)cc1
Rate constant with Cdk2 T182C: 0.005204

compound: C=CC(=O)NCCc1c[nH]c2ccccc12
Rate constant with Cdk2 T182C: 0.005783

compound: C=CC(=O)N1CC2(CCC2)c2c(F)cccc21
Rate constant with Cdk2 T182C: 0.3741

compound: C=CC(=O)N1CC(OCCN(CC)CC)C1
Rate constant with Cdk2 T182C: 0.00601

compound: C=CC(=O)N1CCC2CCC(C1)N2C (stereo not drawn)
Rate constant with Cdk2 T182C: 0.06917

compound: C=CC(=O)N1CCCCCC1c1cccnc1 (stereo not drawn)
Rate constant with Cdk2 T182C: 0.00654

compound: C=CC(=O)Nc1cccc(C(F)(F)F)c1 [EL-1007]
Rate constant with Cdk2 T182C: 0.06154

(P) C=CC(=O)NCc1ccc(C(=O)OC)cc1
(Q) C=CC(=O)NCCNC(=O)C1CCCN1S(=O)(=O)c1ccccc1 (stereo not drawn)
QUERY: Returns: the label, P or Q , whose recorded Rate constant with Cdk2 T182C is the lower number. Choose, then provide that item's label.
RESULT: P
(P: 0.002061, Q: 0.004866)

----------
target under test: Cdk2(S276C) (C177A) (Homo sapiens, UniProt P24941, C177A/S276C)
Construct: poly-histidine; made in house; host or cells: E. coli
test details: Kinetic thiol consumption assay with Cdk2 mutant S276C
Type: binding
condition context: Protein: Cdk2; cysteine position S276C; additional mutation C177A; in h^-1
assay readout: Rate constant with Cdk2 S276C

molecule: C=CC(=O)Nc1cccc(C(F)(F)F)c1 [EL-1007]
Rate constant with Cdk2 S276C: 0.03236
//
molecule: C=CC(=O)NC(C)c1cc(OC)c(OC)c(OC)c1 (stereo not drawn)
Rate constant with Cdk2 S276C: 0.007413
//
molecule: C=CC(=O)NC1c2ccccc2Oc2ccccc21
Rate constant with Cdk2 S276C: 0.003794
//
molecule: O=C(CCl)N1CCCCCC1
Rate constant with Cdk2 S276C: 0.1424

(a) O=S1(=O)C=CC(Br)C1 (stereo not drawn)
(b) C=CC(=O)NC1C2C3CCC(C3)C12 (stereo not drawn)
(c) C=CC(=O)Nc1ccc(C(=O)NC2CCCC2)cc1
(d) C=CC(=O)N(C)C1C2CCOC2C1(C)C (stereo not drawn)
QUERY: Put the items in sequence by Rate constant with Cdk2 S276C, from largest down. # output: labels, in the requested order
RESULT: a, c, b, d

(P) C=CC(=O)N1CCC2(CC1)NC(=O)C1(CCCCC1)N2
(Q) C=CC(=O)N(Cc1ccco1)Cc1cc2cc(C)ccc2o1
(R) C=CC(=O)N1CCCC1c1ccc(OC)cc1 (stereo not drawn)
QUERY: Let's sort these by Rate constant with Cdk2 S276C, smallest first. Go ahead? # output: labels, in the requested order
RESULT: R, P, Q
(R: 0.0014, P: 0.01838, Q: 0.4669)
